# assayed system: human wild-type P-gp (ABCB1 1236C-2677G-3435C) (Homo sapiens, UniProt P08183, S893A)
# Sequence (P08183 whole entry S893A): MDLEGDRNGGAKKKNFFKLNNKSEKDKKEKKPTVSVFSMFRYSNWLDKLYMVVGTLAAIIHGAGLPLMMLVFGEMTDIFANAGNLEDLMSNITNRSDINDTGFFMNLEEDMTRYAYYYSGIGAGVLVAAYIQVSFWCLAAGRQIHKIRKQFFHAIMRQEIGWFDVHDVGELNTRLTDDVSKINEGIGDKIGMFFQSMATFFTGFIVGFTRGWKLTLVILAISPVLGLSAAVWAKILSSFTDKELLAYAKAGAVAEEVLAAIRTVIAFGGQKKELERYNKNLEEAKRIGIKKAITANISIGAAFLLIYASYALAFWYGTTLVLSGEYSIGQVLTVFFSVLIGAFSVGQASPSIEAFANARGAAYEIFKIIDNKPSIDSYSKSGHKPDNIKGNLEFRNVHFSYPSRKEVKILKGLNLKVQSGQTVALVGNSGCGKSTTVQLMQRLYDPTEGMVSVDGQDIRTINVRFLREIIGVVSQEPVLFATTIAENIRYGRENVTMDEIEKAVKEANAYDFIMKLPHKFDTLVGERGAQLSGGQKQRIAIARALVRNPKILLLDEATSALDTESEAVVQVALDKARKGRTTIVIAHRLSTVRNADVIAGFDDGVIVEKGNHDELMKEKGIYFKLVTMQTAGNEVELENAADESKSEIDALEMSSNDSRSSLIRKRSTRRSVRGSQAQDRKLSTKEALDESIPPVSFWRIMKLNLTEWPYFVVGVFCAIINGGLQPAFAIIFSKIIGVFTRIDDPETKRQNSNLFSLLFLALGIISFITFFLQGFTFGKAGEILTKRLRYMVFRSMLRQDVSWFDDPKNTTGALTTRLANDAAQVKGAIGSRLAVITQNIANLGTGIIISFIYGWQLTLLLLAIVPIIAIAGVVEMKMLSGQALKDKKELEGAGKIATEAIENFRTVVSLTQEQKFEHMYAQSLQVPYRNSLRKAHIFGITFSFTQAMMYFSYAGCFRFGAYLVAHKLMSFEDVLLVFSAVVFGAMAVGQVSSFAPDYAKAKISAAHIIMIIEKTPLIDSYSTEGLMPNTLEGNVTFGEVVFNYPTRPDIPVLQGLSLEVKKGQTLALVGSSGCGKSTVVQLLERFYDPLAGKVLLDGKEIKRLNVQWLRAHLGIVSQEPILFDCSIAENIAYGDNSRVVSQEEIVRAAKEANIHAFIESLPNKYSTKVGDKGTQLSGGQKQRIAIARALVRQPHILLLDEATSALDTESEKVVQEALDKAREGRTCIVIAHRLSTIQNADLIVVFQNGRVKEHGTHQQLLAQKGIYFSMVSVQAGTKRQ
# assay name: in vitro
endpoint label: Km at 10 min (µM)
Your answer is read as µM, so omit the unit and give the number.

Query: Identify measured Km at 10 min associated with "COC(=O)c1ccccc1-c1c2ccc(=N)cc-2oc2cc(N)ccc12"
Result: 16.6

----------
# assayed system: human wild-type P-gp (ABCB1 1236C-2677G-3435C) (Homo sapiens, UniProt P08183, S893A)
# assay name: cell-based
endpoint label: pKi
Give only the number. pKi is defined as minus log10 of concentration in molar units.

Query: Please respond with reported pKi (system human wild-type P-gp (ABCB1 1236C-2677G-3435C) (Homo sapiens, UniProt P08183, S893A)) for CCC(=O)C(CC(C)N(C)C)(c1ccccc1)c1ccccc1 (stereo not shown) .
Result: 5.56

----------
# assayed system: UniProt:P08183
endpoint label: pIC50
Scale explanation: pIC50 corresponds to minus log10 of a concentration expressed in moles per litre.

Query: Report measured pIC50; entry is CCC(=O)C(CC(C)N(C)C)(c1ccccc1)c1ccccc1 (stereo not shown)
Result: 5.53

----------
# assayed system: human P-gp with 1236T-2677A-3435T genotype (Homo sapiens, UniProt P08183, S893T)
# Sequence (P08183 whole entry S893T): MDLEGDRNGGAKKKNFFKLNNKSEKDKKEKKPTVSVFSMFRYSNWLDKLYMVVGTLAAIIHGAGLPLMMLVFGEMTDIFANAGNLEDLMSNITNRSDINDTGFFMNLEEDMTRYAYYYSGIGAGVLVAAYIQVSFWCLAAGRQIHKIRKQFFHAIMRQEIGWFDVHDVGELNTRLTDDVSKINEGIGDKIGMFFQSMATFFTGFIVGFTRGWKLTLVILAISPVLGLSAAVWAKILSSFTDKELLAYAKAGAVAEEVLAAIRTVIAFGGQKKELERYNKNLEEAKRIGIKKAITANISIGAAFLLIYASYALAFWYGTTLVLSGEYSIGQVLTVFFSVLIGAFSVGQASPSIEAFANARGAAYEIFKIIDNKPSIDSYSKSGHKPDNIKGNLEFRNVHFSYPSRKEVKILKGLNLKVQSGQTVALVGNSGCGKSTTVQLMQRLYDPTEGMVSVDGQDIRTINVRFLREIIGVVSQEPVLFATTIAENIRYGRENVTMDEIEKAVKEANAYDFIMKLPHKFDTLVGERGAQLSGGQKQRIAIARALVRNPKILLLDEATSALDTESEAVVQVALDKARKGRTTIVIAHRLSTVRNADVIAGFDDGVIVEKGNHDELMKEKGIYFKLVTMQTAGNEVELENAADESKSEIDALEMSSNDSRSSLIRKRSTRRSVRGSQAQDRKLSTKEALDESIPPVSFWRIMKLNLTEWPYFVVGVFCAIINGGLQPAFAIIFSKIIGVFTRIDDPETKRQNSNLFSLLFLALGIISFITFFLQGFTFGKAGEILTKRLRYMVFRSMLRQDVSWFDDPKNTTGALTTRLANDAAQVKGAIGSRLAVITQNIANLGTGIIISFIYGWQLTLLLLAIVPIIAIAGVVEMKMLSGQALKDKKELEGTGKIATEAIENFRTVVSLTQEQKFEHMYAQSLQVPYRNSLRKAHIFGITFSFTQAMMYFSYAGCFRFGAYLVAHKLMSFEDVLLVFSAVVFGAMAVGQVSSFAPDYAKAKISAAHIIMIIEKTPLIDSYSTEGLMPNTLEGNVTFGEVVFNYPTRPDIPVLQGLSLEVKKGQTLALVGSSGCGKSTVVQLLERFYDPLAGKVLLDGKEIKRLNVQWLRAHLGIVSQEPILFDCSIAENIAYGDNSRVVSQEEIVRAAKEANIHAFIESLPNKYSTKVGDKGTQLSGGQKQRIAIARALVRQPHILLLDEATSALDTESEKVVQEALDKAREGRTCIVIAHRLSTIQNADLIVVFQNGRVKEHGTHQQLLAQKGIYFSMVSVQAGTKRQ
# assay name: in vitro
endpoint label: Km at 10 min (µM)
Unit µM implied. Number only.

Query: Identify measured Km at 10 min associated with "COC(=O)c1ccccc1-c1c2ccc(=N)cc-2oc2cc(N)ccc12"
Result: 14.8
